Data provenance: paper PMC12563652

Property: IC50; scope: individual molecules
molecular target: α2B-adrenoceptor (Homo sapiens, UniProt P18089); test: α2B-adrenoceptor intrinsic activity, antagonist mode (AequoScreen); format: cell-based; settings: n.a. = no activity at 10–5 M; read-out: α2B Ant IC50
Sequence (P18089 whole entry): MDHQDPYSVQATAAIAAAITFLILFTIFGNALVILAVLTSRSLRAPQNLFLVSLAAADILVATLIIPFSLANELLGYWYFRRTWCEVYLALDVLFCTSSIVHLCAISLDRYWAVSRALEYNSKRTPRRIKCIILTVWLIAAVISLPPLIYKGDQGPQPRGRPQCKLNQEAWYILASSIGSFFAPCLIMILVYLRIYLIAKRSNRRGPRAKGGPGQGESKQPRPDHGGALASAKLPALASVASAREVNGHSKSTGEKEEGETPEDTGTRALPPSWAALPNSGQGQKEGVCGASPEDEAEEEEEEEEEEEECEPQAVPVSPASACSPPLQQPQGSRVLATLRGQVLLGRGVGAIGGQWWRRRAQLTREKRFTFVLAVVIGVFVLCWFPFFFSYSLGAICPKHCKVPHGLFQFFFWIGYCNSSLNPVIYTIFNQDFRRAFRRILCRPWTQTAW
Provide only the numeric value, understood in nM.

{"structure_string": "COc1ccc(F)c(/C=N/NC(=N)N)c1F", "IC50 [nM]": 220}

Then there is this molecule:
Prompt: Request - read-out IC50 | tested on α2B-adrenoceptor (Homo sapiens, UniProt P18089) | molecule [H]/N=C(\N)NN=Cc1c(Cl)cncc1Cl
Response: 622
